Tested on: DU145
Assay: WST-1 proliferation assay, DU145 cells (Example 16)
Format: cell-based, human
Settings: 10 uM, 48 h
Decide by % Proliferation (vs control) 48 h Du145: equal to or exceeding 30% means satisfied, less means not satisfied.

// known answers, use as guide
- Compound: "COC(=O)C1=C[C@H](C)C[C@H]2C[C@H](c3ccccc3)[C@@H]3O[C@]123 (stereo in doubt) [Example 7]"
  Assigned Class: "satisfied"
- Compound: "C[C@H]1C=C2C(=O)OC3[C@H](Cc4ccccc4)C[C@H](C1)[C@]23O (stereo partly drawn) [Example 3]"
  Assigned Class: "not satisfied"
- Compound: "COC(=O)C1=C[C@H](C)C[C@H]2CC(C)(C)[C@@H]3O[C@]123 (stereo in doubt) [Example 11]"
  Assigned Class: "satisfied"
- Compound: "C[C@H]1C=C2C(=O)OC3C(C)(C)C[C@H](C1)[C@]23O (stereo partly drawn) [Example 1]"
  Assigned Class: "not satisfied"
- Compound: "COC(=O)C1=C[C@H](C)C[C@H]2C[C@@H](Cc3ccccc3)[C@@H]3O[C@]123 (stereo in doubt) [Example 9]"
  Assigned Class: "satisfied"

Input: Please tell me: is the compound COC(=O)C1=C[C@H](C)C[C@H]2C[C@H](Cc3ccccc3)[C@@H]3O[C@]123 (stereo in doubt) [Example 10] at or over 30% in terms of % Proliferation (vs control) 48 h Du145?
Output: not satisfied

Input: Please tell me: is the compound COC(=O)C1=C[C@H](C)C[C@H]2C[C@@H](c3ccccc3)[C@@H]3O[C@]123 (stereo in doubt) [Example 8] at or over 30% in terms of % Proliferation (vs control) 48 h Du145?
Output: not satisfied

Input: Please tell me: is the compound C[C@@H]1C=C2C(=O)O[C@@H]3CC[C@H](C1)C23O (single isomer, unassigned; (-)) [(−)-Galiellalactone, reference compound] at or over 30% in terms of % Proliferation (vs control) 48 h Du145?
Output: not satisfied

---

Test system: STAT-3 transcription factor
Assay: STAT3 inhibition, luciferase reporter (4xM67 pTATA TK-Luc) in HeLa cells stimulated with γ-Interferon
Assay type: cell-based
Settings: Homo sapiens, γ-Interferon 8 h, luciferase activity, read-out: Anti STAT3 IC50
Binary label based on IC50 with cut-off 2 µM: below gives criterion met, not below gives criterion not met.

// known answers, use as guide
- Molecule: "C[C@H]1C=C2C(=O)OC3[C@H](c4ccccc4)C[C@H](C1)[C@]23O (some centres unmarked) [Example 2]"
  Assigned Class: "criterion met"
- Molecule: "C[C@H]1C=C2C(=O)OC3C(C)(C)C[C@H](C1)[C@]23O (some centres unmarked) [Example 1]"
  Assigned Class: "criterion not met"

Input: IC50 strictly < 2 µM for this molecule? COC(=O)C1=C[C@H](C)C[C@H]2CC(C)(C)[C@@H]3O[C@]123 (stereo in doubt) [Example 11]
Output: criterion not met

Input: IC50 strictly < 2 µM for this molecule? COC(=O)C1=C[C@H](C)C[C@H]2C[C@H](Cc3ccccc3)[C@@H]3O[C@]123 (stereo in doubt) [Example 10]
Output: criterion not met

Input: IC50 strictly < 2 µM for this molecule? C[C@H]1C=C2C(=O)OC3[C@H](Cc4ccccc4)C[C@H](C1)[C@]23O (some centres unmarked) [Example 3]
Output: criterion not met

Input: IC50 strictly < 2 µM for this molecule? COC(=O)C1=C[C@H](C)C[C@H]2C[C@H](c3ccccc3)[C@@H]3O[C@]123 (stereo in doubt) [Example 7]
Output: criterion met

Input: IC50 strictly < 2 µM for this molecule? COC(=O)C1=C[C@H](C)C[C@H]2C[C@@H](c3ccccc3)[C@@H]3O[C@]123 (stereo in doubt) [Example 8]
Output: criterion met

---

Tested on: LNCaP-IL6 cells
Assay: WST-1 proliferation assay, LNCaP-IL6 cells
Format: cell-based, human
Conditions: 5 uM, 24 h
Procedure: The human prostate cancer cell lines DU145, LNCaP (from the American Type culture Collection, ATCC) and long-term interleukin-6 (IL-6) stimulated LNCaP cells (LNCaP-IL6 cells) (Hobisch, Ramoner et al. 2001) were used. […] WST-1 proliferation assay was performed to study the effects of the test items on the proliferation and viability of cultured prostate cancer cells. […] The results are presented as percent of untreated control cells or the absorbance value.
Reported % Proliferation (vs control) 24 h LNCaP-IL6 is given for each of the following compounds.
Dear colleague, please return just the value in %, with no unit written.

- Compound: "C[C@H]1C=C2C(=O)OC3[C@H](Cc4ccccc4)C[C@H](C1)[C@]23O (stereo partly drawn) [Example 3]"
  System: "LNCaP-IL6 cells"
  Unit String: "%"
  Measurement: 59.00
- Compound: "C[C@H]1C=C2C(=O)OC3C(C)(C)C[C@H](C1)[C@]23O (stereo partly drawn) [Example 1]"
  System: "LNCaP-IL6 cells"
  Unit String: "%"
  Measurement: 68.95
- Compound: "COC(=O)C1=C[C@H](C)C[C@H]2CC(C)(C)[C@@H]3O[C@]123 (stereo in doubt) [Example 11]"
  System: "LNCaP-IL6 cells"
  Unit String: "%"
  Measurement: 89.35
- Compound: "C[C@H]1C=C2C(=O)OC3[C@H](c4ccccc4)C[C@H](C1)[C@]23O (stereo partly drawn) [Example 2]"
  System: "LNCaP-IL6 cells"
  Unit String: "%"
  Measurement: 81.21
- Compound: "C[C@@H]1C=C2C(=O)O[C@@H]3CC[C@H](C1)C23O (single isomer, unassigned; (-)) [(−)-Galiellalactone, reference compound]"
  System: "LNCaP-IL6 cells"
  Unit String: "%"
  Measurement: 68.76
- Compound: "COC(=O)C1=C[C@H](C)C[C@H]2C[C@@H](c3ccccc3)[C@@H]3O[C@]123 (stereo in doubt) [Example 8]"
  System: "LNCaP-IL6 cells"
  Unit String: "%"
  Measurement: 58.97
- Compound: "COC(=O)C1=C[C@H](C)C[C@H]2C[C@H](c3ccccc3)[C@@H]3O[C@]123 (stereo in doubt) [Example 7]"
  System: "LNCaP-IL6 cells"
  Unit String: "%"
  Measurement: 81.21
- Compound: "COC(=O)C1=C[C@H](C)C[C@H]2C[C@H](Cc3ccccc3)[C@@H]3O[C@]123 (stereo in doubt) [Example 10]"
  System: "LNCaP-IL6 cells"
  Unit String: "%"
  Measurement: 92.69

Now look at this one.
Input: Would you mind telling me what % Proliferation (vs control) 24 h LNCaP-IL6 value was observed for COC(=O)C1=C[C@H](C)C[C@H]2C[C@@H](Cc3ccccc3)[C@@H]3O[C@]123 (stereo in doubt) [Example 9] ?
Output: 90.02

---

Tested on: LNCaP-IL6 cells
Test: WST-1 proliferation assay, LNCaP-IL6 cells
Format: cell-based, human
Conditions: 2.5 uM, 48 h
Protocol: The human prostate cancer cell lines DU145, LNCaP (from the American Type culture Collection, ATCC) and long-term interleukin-6 (IL-6) stimulated LNCaP cells (LNCaP-IL6 cells) (Hobisch, Ramoner et al. 2001) were used. […] WST-1 proliferation assay was performed to study the effects of the test items on the proliferation and viability of cultured prostate cancer cells. […] The results are presented as percent of untreated control cells or the absorbance value.
Test Readout: % Proliferation (vs control) 48 h LNCaP-IL6

Here is how some molecules turned out for % Proliferation (vs control) 48 h LNCaP-IL6.
- Molecule: "COC(=O)C1=C[C@H](C)C[C@H]2C[C@H](Cc3ccccc3)[C@@H]3O[C@]123 (stereo in doubt) [Example 10]"
  Measurement: "74.81%"
- Molecule: "C[C@H]1C=C2C(=O)OC3[C@H](c4ccccc4)C[C@H](C1)[C@]23O (stereo partly drawn) [Example 2]"
  Measurement: "79.56%"
- Molecule: "COC(=O)C1=C[C@H](C)C[C@H]2C[C@@H](Cc3ccccc3)[C@@H]3O[C@]123 (stereo in doubt) [Example 9]"
  Measurement: "104.12%"
- Molecule: "COC(=O)C1=C[C@H](C)C[C@H]2CC(C)(C)[C@@H]3O[C@]123 (stereo in doubt) [Example 11]"
  Measurement: "78.36%"
- Molecule: "COC(=O)C1=C[C@H](C)C[C@H]2C[C@@H](c3ccccc3)[C@@H]3O[C@]123 (stereo in doubt) [Example 8]"
  Measurement: "48.79%"
- Molecule: "C[C@@H]1C=C2C(=O)O[C@@H]3CC[C@H](C1)C23O (single isomer, unassigned; (-)) [(−)-Galiellalactone, reference compound]"
  Measurement: "96.78%"
- Molecule: "C[C@H]1C=C2C(=O)OC3C(C)(C)C[C@H](C1)[C@]23O (stereo partly drawn) [Example 1]"
  Measurement: "52.42%"
- Molecule: "COC(=O)C1=C[C@H](C)C[C@H]2C[C@H](c3ccccc3)[C@@H]3O[C@]123 (stereo in doubt) [Example 7]"
  Measurement: "82.60%"

Now look at this one.
Input: Would you mind telling me what % Proliferation (vs control) 48 h LNCaP-IL6 value was observed for C[C@H]1C=C2C(=O)OC3[C@H](Cc4ccccc4)C[C@H](C1)[C@]23O (stereo partly drawn) [Example 3] ?
Output: 27.82%
